- condition.notes: 308 K; 101.33 kPa; Liquid; Concentric cylinders viscometry
endpoint.label: viscosity (mPa·s)
Entry rule: numbers only, all in mPa·s.

The compound `CCCCCn1cc[n+](C)c1.O=S(=O)([N-]S(=O)(=O)C(F)(F)F)C(F)(F)F` showed viscosity equal to 37.92

Data point: `CCCn1cc[n+](C)c1.O=S(=O)([N-]S(=O)(=O)C(F)(F)F)C(F)(F)F` ; viscosity = 31.07

`CCCCCC[n+]1ccn(C)c1.O=S(=O)([N-]S(=O)(=O)C(F)(F)F)C(F)(F)F` yielded viscosity of 45.61

viscosity for `CCCCCCCCCCCCn1cc[n+](C)c1.O=S(=O)([N-]S(=O)(=O)C(F)(F)F)C(F)(F)F` is 93.71

Short answer for `CCCC[n+]1ccn(C)c1.O=S(=O)([N-]S(=O)(=O)C(F)(F)F)C(F)(F)F` : viscosity was 33.89

Lab book: viscosity of `CCCCCCCCCCn1cc[n+](C)c1.O=S(=O)([N-]S(=O)(=O)C(F)(F)F)C(F)(F)F` noted as 73.92

Entry `CCCCCCCn1cc[n+](C)c1.O=S(=O)([N-]S(=O)(=O)C(F)(F)F)C(F)(F)F` ; viscosity = 51.75

Memo: `CCCCCCCCn1cc[n+](C)c1.O=S(=O)([N-]S(=O)(=O)C(F)(F)F)C(F)(F)F` , reported viscosity: 58.53

Form field viscosity, entry `CCn1cc[n+](C)c1.O=S(=O)([N-]S(=O)(=O)C(F)(F)F)C(F)(F)F` : 23.66

----------
I'd appreciate it if you could supply viscosity values for the items below.
- condition.notes: 348 K; 101.33 kPa; Liquid; Concentric cylinders viscometry
Answer format: numeric, mPa·s implied, no suffix.

viscosity in this record for `CCCCCn1cc[n+](C)c1.O=S(=O)([N-]S(=O)(=O)C(F)(F)F)C(F)(F)F` : 11.27

// viscosity lookup, molecule = `CCn1cc[n+](C)c1.O=S(=O)([N-]S(=O)(=O)C(F)(F)F)C(F)(F)F` , result: 8.848

Noted for `CCCCCCCCn1cc[n+](C)c1.O=S(=O)([N-]S(=O)(=O)C(F)(F)F)C(F)(F)F` : its viscosity reads 15.18

What the record says about `CCCCCCCCCCCCn1cc[n+](C)c1.O=S(=O)([N-]S(=O)(=O)C(F)(F)F)C(F)(F)F` : viscosity is 21.14

The measured viscosity associated with `CCCCCC[n+]1ccn(C)c1.O=S(=O)([N-]S(=O)(=O)C(F)(F)F)C(F)(F)F` reads 12.81

Lab note: measured viscosity of `CCCn1cc[n+](C)c1.O=S(=O)([N-]S(=O)(=O)C(F)(F)F)C(F)(F)F` was 10.14

viscosity in this record for `CCCCCCCCCCCCCCn1cc[n+](C)c1.O=S(=O)([N-]S(=O)(=O)C(F)(F)F)C(F)(F)F` : 25.93

For record `CCCCCCCCCCn1cc[n+](C)c1.O=S(=O)([N-]S(=O)(=O)C(F)(F)F)C(F)(F)F` the listed viscosity is 17.88

// field: viscosity; key: `CCCC[n+]1ccn(C)c1.O=S(=O)([N-]S(=O)(=O)C(F)(F)F)C(F)(F)F` ; value = 10.61

Looking up `CCCCCCCn1cc[n+](C)c1.O=S(=O)([N-]S(=O)(=O)C(F)(F)F)C(F)(F)F` , I see its viscosity listed as 13.95
